Recorded values, source patent US20100249172A1.

test system: MCF-7 cells; assay: Cell cycle analysis by flow cytometry (propidium iodide); assay type: cell-based, human; settings: 25 μM, 72 h, mean ± S.E.M.

# COMPOUND, TEST_SYSTEM, S %, %
measured = [
    ("COc1ccc2c(c1OC)C(=O)O[C@@H]2[C@H]1c2c(c(Br)c3c(c2OC)OCO3)CCN1C [9-Br-nos]", "MCF-7 cells", 2.4),
    ("COc1ccc2c(c1OC)C(=O)O[C@@H]2[C@H]1c2c(c(F)c3c(c2OC)OCO3)CCN1C [9-F-nos]", "MCF-7 cells", 3.6),
    ("COc1ccc2c(c1OC)C(=O)O[C@@H]2[C@H]1c2c(c(I)c3c(c2OC)OCO3)CCN1C [9-I-nos]", "MCF-7 cells", 4.9),
    ("COc1ccc2c(c1OC)C(=O)O[C@@H]2[C@H]1c2c(cc3c(c2OC)OCO3)CCN1C [Nos, reference compound]", "MCF-7 cells", 7.06),
    ("COc1ccc2c(c1OC)C(=O)O[C@@H]2[C@H]1c2c(c(Cl)c3c(c2OC)OCO3)CCN1C [9-Cl-nos]", "MCF-7 cells", 4.1),
]
